test system: HT-1080; assay: Modulatory profiling: Alamar Blue viability, lethal compound cotreated with death modulator (EC50, AUC); assay type: cell-based; parameters: unit not given beside the values; conditions: HT-1080, modulator NAD+
AUC HT.NAD+ of 0.08 or higher: y. Under 0.08: n.

Take a look at these entries with their results.
COC(=O)c1[nH]c2ccc(Br)cc2c1NC(=O)CN1CCN(C2CCCCC2)CC1 ... n
O=S1(=O)Nc2c(ccc3cccnc23)-c2ccccc21 ... n
C=C(C)[C@H]1Cc2c(ccc3c2O[C@@H]2COc4cc(OC)c(OC)cc4[C@@H]2C3=O)O1 ... y
C[C@@H]1C[C@@H]([C@H](O)CC2CC(=O)NC(=O)C2)C(=O)[C@@H](C)C1 [cycloheximide, Cycloheximide, reference compound] ... n
O=c1c(Cl)c(Cl)cnn1-c1ccc(Cl)c(C(F)(F)F)c1 ... n

Determine whether this compound has AUC HT.NAD+ no lower than 0.08: `COc1cccc(-n2nnnc2S(C)(=O)=O)c1`
n

Decide: is the reported value of AUC HT.NAD+ for `CC[C@]1(O)C[C@@H]2CN(CCc3c([nH]c4ccccc34)[C@@](C(=O)OC)(c3cc4c(cc3OC)N(C)[C@H]3[C@@](O)(C(=O)OC)[C@H](OC(C)=O)[C@]5(CC)C=CCN6CC[C@]43[C@@H]65)C2)C1` equal to or greater than 0.08?
y
